- TARGET SYSTEM: Nsp15 endoribonuclease WT (SARS coronavirus, UniProt P0C6X7 6430-6775)
RESULT TYPE: IC50 (nM)
The answer is to be given in nM; state only the numeric part.

| BINDER | IC50 / nM |
| --- | --- |
| AAAAAAAAAAAAAAAA (ssRNA) [rA16] | 53 |

// switching to the query binder
So what's the measured IC50 for this one? UUUUUUUUUUUUUUUU (ssRNA) [rU16 (U16)]
15
